Readings of pIC50 for the listed compounds
Molecular target: human FAK (Homo sapiens (Human))
Settings: read-out: FAK IC50
# pIC50 = -log10(concentration in molar units)

What does the data say about its pIC50? Entry: CS(=O)(=O)c1ccc(-c2cccn3nc(NCc4cccnc4)nc23)cc1
5.00

---

Target: human FAK (Homo sapiens (Human), UniProt Q05397)
Sequence (Q05397 whole entry): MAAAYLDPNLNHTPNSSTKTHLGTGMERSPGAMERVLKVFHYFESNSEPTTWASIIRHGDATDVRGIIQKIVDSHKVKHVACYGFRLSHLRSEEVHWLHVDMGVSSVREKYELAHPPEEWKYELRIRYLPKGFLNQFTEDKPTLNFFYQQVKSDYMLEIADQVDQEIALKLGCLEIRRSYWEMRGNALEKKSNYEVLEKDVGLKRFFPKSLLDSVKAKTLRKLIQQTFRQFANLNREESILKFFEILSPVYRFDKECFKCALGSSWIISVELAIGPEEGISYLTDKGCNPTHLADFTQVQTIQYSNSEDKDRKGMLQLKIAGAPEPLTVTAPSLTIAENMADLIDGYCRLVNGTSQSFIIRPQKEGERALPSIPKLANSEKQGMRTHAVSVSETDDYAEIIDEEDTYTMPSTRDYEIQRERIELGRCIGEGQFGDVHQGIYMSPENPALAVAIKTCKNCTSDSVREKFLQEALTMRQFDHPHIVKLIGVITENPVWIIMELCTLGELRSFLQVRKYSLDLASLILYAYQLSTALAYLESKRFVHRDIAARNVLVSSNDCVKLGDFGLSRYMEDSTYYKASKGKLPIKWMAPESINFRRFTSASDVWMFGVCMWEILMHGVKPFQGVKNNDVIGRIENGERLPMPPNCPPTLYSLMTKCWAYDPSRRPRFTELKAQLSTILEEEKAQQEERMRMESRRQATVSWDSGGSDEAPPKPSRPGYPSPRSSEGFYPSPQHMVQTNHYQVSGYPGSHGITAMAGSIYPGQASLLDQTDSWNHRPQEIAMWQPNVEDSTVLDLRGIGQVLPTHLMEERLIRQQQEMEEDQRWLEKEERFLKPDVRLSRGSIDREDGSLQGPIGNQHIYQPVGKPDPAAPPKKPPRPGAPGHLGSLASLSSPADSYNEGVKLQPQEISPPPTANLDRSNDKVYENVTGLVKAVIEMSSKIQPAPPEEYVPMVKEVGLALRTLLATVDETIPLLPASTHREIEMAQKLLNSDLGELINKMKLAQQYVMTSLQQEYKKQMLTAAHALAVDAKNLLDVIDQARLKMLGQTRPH
Settings: read-out: FAK IC50
This section presents compounds with their documented IC50 values.
Just the number in nM, nothing appended.

Worked examples follow.
CCN1CCP(=O)(c2ccc(Nc3nc4c(-c5ccc(S(C)(=O)=O)cc5)cccn4n3)cc2)CC1 1860
CC(C)COc1cccc(-c2cccn3nc(Nc4ccc5c(c4)CCNCC5)nc23)c1 3000
CC(C)Oc1ccccc1-c1cccn2nc(Nc3ccc4c(c3)CCNCC4)nc12 999
CC(C)(C)OC(=O)N1CCN(c2ccc(Nc3nc4cccc(-c5ccc(S(C)(=O)=O)cc5)n4n3)cc2)CC1 359
CN(C)C(=O)CN1CCc2ccc(Nc3nc4c(-c5cc(S(C)(=O)=O)ccc5OCC(F)F)cccn4n3)cc2CC1 10000

Consider the additional compound presented here.
Give its IC50 value. Item: CS(=O)(=O)c1ccc(Nc2nc3c(-c4ccc(S(C)(=O)=O)cc4)cccn3n2)cc1
531
